# TARGET OR SYSTEM: T1, mfNPR1-mFc:hBNP complex (monkey; human, UniProt P16860 103-134)
# T1 construct: Receptor-Fc pre-complexed with 10-fold hBNP
# TEST: SPR Biacore, mAb captured by anti-human Fc, 37C
QUANTITY KIND: 100 nM Ag Bound (RU)

# BINDER, 100 nM Ag Bound (RU)
records = [
    ("mAb25508 (antibody, human IgG4, V domains shown) VH: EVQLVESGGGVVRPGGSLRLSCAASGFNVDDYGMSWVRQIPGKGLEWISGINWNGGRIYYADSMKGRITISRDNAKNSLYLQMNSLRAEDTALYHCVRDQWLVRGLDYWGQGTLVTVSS VL: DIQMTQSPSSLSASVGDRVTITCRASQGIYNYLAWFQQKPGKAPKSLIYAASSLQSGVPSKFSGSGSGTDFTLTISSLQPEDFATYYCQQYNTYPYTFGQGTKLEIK", "266 RU"),
    ("mAb22809 (antibody, human IgG4, V domains shown) VH: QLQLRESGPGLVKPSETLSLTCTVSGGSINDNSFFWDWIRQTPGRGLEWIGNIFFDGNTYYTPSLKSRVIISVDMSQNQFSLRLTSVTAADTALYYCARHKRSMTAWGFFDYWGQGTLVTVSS VL: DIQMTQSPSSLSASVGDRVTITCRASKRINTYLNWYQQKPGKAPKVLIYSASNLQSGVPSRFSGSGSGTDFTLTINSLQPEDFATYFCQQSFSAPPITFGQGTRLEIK", "99 RU"),
]

Consider the record given below.
Which 100 nM Ag Bound (RU) value belongs to mAb25491 (antibody, human IgG4, V domains shown) VH: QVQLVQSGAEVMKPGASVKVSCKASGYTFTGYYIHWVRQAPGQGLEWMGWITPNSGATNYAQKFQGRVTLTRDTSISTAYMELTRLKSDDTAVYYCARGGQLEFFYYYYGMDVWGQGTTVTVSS VL: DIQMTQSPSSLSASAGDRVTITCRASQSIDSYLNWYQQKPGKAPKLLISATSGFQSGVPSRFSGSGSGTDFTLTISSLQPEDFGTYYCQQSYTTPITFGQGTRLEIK ?
146 RU
